Numbers sourced from PubChem BioAssay.

Could you please report measured z-score for the items listed next?
- Experiment notes: basal RPMI8226 viability, no added stimulus, profiling panel, cell-based, calcein-AM fluorescence, 48 h, PK04 Diversity Set (AID 1166);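 further: cells grown under basal conditions without added stimulus; test concentration not given here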
- Assay context: RPMI8226 myeloma viability, higher = more signal
Field format: numeric only.

Task: Specify measured z-score for CCOC(=O)[C@H](Cc1ccccc1)NC(=O)CCC1CC(OC(=O)NCc2ccc3c(c2)OCO3)CC2(CCCC(COC(=O)NCC(c3ccccc3)c3ccccc3)O2)O1 (some centres not stated) .
Output: -3.61

Task: Specify measured z-score for COc1ccc([Si](C)(C)[C@H]2[C@H](CC(=O)N3CCC[C@H]3CO)O[C@@]3(C(=O)N(Cc4cccc(N5C(=O)COc6ccccc65)c4)c4ccccc43)[C@@H]2C)cc1 .
Output: -4.37

Task: Specify measured z-score for COc1ccc([Si](C)(C)[C@H]2[C@H](CCO)O[C@@]3(C(=O)N(Cc4cccc(NC(=O)[C@H](C)O)c4)c4ccccc43)[C@@H]2C)cc1 .
Output: -4.36

Task: Specify measured z-score for CCN(CC)c1ccc(N2CC=CC34O[C@@H]5/C=C\CCC(C)OC(=O)C5[C@H]3C(=O)N(CCCO)[C@@H]4C2=O)cc1 (some centres not stated) .
Output: 0.264

Task: Specify measured z-score for COC(=O)CC=C[C@@H](C)[C@@H](C=NO[C@@H](C)c1cc(-c2c(C)cc(C)cc2C)no1)OC .
Output: -0.466

Task: Specify measured z-score for CO[C@@H]1COC(=O)CCC[C@@H](C)[C@H](OC)COC(=O)CCC[C@H]1C .
Output: 0.239

Task: Specify measured z-score for CC(C)=C1C(=O)C(c2ccccc2)=C2CN3C(=O)N(CCc4ccccc4)C(=O)[C@]3(Cc3ccc(F)cc3)[C@H]21 .
Output: -0.975
